Quick reference for GI50 among some compounds
tested on: MCF7; assay: NCI tumour cell line growth inhibition, 48 h
Activity calls are given as the source filed them. Rule as the data show it: active = GI50 up to about 1.1 µM and inactive = higher.

COMPOUND: COc1ccc(N2C(=O)C3c4[nH]c5ccc(F)cc5c4C4CCC(c5ccccc5)CC4C3C2=O)cc1 (configuration not stated)
GI50: 18.7 µM (inactive)
//
COMPOUND: CC1(C)C(N2CCOCC2)CS1(=O)=O (configuration not stated)
GI50: > 10 µM (inactive)
//
COMPOUND: CCCN1C(=O)/C(=C\c2ccc(OC)c(OC)c2)S/C1=N\c1ccccc1
GI50: > 100 µM (inactive)
//
COMPOUND: CCOC(=O)c1cn(CC)c(=O)n2c1nc1ccccc12
GI50: 54.6 µM (inactive)
//
COMPOUND: Nc1nc(Cl)cc(NCC2(CO)CCC2)n1
GI50: > 100 µM (inactive)
//
COMPOUND: O=[N+]([O-])c1cccc([N+](=O)[O-])c1Cl
GI50: 4.24 µM (inactive)
//
COMPOUND: CCCCCc1c(CCCC)c(=O)[nH]c2cc(CNCC(OC)OC)ccc12
GI50: 12.9 µM (inactive)
//
COMPOUND: COc1ccc2nc(N/N=C/C(C)=N/Nc3cc(C)c4cc(OC)ccc4n3)cc(C)c2c1
GI50: 14.3 µM (inactive)
//
COMPOUND: CN1CC2CN(Cc3ccccc3)CCN2c2cccnc21 (configuration not stated)
GI50: 39.9 µM (inactive)
//
COMPOUND: O=C1Nc2ccccc2/C1=C/c1c(Cl)[nH]c2ccc(O)cc12
GI50: 1.17 µM (inactive)
//
COMPOUND: CCNc1nc(N)c(C(=O)c2cccs2)s1
GI50: 22 µM (inactive)
//
COMPOUND: FC(F)(F)c1nc2ccc(SSc3ccc4nc(C(F)(F)F)[nH]c4c3)cc2[nH]1
GI50: 35.7 µM (inactive)
//
COMPOUND: O=C1CC(c2cccc(F)c2)Nc2cc3c(cc21)OCO3 (configuration not stated)
GI50: 0.0472 µM (active)
//
COMPOUND: COc1cc2c(cc1C[C@H]1[C@@H]3C[C@H]4c5c(c6ccccc6n5C)C[C@@H]([C@@H]3CO[C@]1(C)OC(C)=O)N4C)c1c(n2C)C2C[C@H]3C(C(C)=O)=COC[C@H]3[C@H](C1)N2C
GI50: 7.48 µM (inactive)
//
COMPOUND: CCOC(=O)C1=C(C)N(c2ccc(OC)cc2)C2(O)C=CC(O)=C3C(=O)c4ccccc4C(=O)C312 (configuration not stated)
GI50: 6.03 µM (inactive)
//
COMPOUND: O=C1c2cc3ccccc3cc2C2(c3ccc(Cl)cc3)NCCN12 (configuration not stated)
GI50: 26.2 µM (inactive)
//
COMPOUND: N#Cc1c(N)nc(Sc2ccccc2N)c(C#N)c1-c1ccc(Cl)cc1
GI50: 7.05 µM (inactive)
//
COMPOUND: NS(=O)(=O)c1nnc(NC(=O)CCC(=O)O)s1
GI50: > 100 µM (inactive)
//
COMPOUND: Cc1ccc2c(=O)cc(-c3cccc(F)c3)[nH]c2n1
GI50: 0.0334 µM (active)
//
COMPOUND: Fc1cc(-c2ncc(Cl)cc2Cl)c2cccccc1-2
GI50: 35.7 µM (inactive)
//
COMPOUND: Cc1[nH]n(C2=NCCN2)c(=O)c1Cc1ccccc1
GI50: > 100 µM (inactive)
//
COMPOUND: Cn1c(-c2cccs2)cc(-c2cccs2)c1-c1ccco1
GI50: 0.473 µM (active)
//
COMPOUND: N#C/C(=C\NC(=S)Nc1ccc(S(=O)(=O)Nc2ccccn2)cc1)C(N)=O
GI50: > 100 µM (inactive)
//
COMPOUND: CC(C)(C)c1cc(OCc2nn3c(Cc4ccccc4)nnc3s2)c(Cl)cc1OCc1nn2c(Cc3ccccc3)nnc2s1
GI50: 22.5 µM (inactive)
//
COMPOUND: O=C(NCc1cccnc1)C(=O)NCc1cccnc1
GI50: > 100 µM (inactive)
//
COMPOUND: O=C1OC(CCCN2CCCCC2)(c2ccccc2)CC12CCCC2 (configuration not stated)
GI50: 58.2 µM (inactive)
//
COMPOUND: CC(C)=CCN(N=O)c1ncnc2[nH]cnc12
GI50: > 100 µM (inactive)
//
COMPOUND: O=C(Nc1ccccc1F)c1cc2ccc(O)cc2o/c1=N\c1cccc(C(F)(F)F)c1
GI50: 2.94 µM (inactive)
//
COMPOUND: COCCOC(=O)c1c(C)[n+]([O-])c2cc(Cl)c(Cl)cc2[n+]1[O-]
GI50: 11.1 µM (inactive)
//
COMPOUND: COC1(OC)N=C(N)C2(C#N)C3(C(=O)N(C(C)C)N=C3C)C12C#N (configuration not stated)
GI50: > 100 µM (inactive)
//
COMPOUND: Cc1ccc(C)n1-n1c(-c2ccccc2)n[nH]c1=O
GI50: > 100 µM (inactive)
//
COMPOUND: CCOC(=O)/C(C(=S)Nc1ccccc1)=C(/N)N1CCCC1
GI50: 54.1 µM (inactive)

====

test system: K562; assay: NCI tumour cell line growth inhibition, 48 h
The source made the active and inactive calls. No stated cut-off is given here; in the data, active = GI50 up to about 1.1 µM and inactive = higher.
Quick reference for GI50 among some compounds

COMPOUND: Cc1cccc(-c2cc(O)c3cccnc3n2)c1
GI50: 0.0993 µM (active)
//
COMPOUND: CCOC(=O)c1sc(=S)n(-c2ccc(Cl)cc2)c1-n1cc(-c2ccccc2)c(C#N)c1N
GI50: 44.4 µM (inactive)
//
COMPOUND: c1ccc(C(=NNc2nc3ccccc3[nH]2)c2ccccn2)nc1
GI50: 0.172 µM (active)
//
COMPOUND: C[N+]1(C)CCOC(O)(c2ccccc2)C1 (stereo unspecified)
GI50: > 100 µM (inactive)
//
COMPOUND: CC1CC(c2ccc(Cl)cc2)=Nc2ccccc2S1 (stereo unspecified)
GI50: > 100 µM (inactive)
//
COMPOUND: Nc1c(S(=O)(=O)O)cc2cc(S(=O)(=O)O)ccc2c1/N=N/c1ccc(-c2ccc(/N=N/c3c(N)c(S(=O)(=O)O)cc4cc(S(=O)(=O)O)ccc34)c(S(=O)(=O)O)c2)cc1
GI50: > 100 µM (inactive)
//
COMPOUND: Cc1cc(N(CCC#N)CCC#N)ccc1C(/N=N\c1ccc(C(=O)O)cc1)=N\NC(=O)c1cc(Cl)ccc1O
GI50: > 100 µM (inactive)
//
COMPOUND: C#CCC(O)c1ccccc1C(O)CC#C (stereo unspecified)
GI50: > 100 µM (inactive)
//
COMPOUND: CC(=O)NNc1nc(C)c(C(=O)NNC(=O)C(=O)Nc2ccc([N+](=O)[O-])cc2[N+](=O)[O-])s1
GI50: 39.4 µM (inactive)
//
COMPOUND: O=C(Nc1ccccc1F)c1cc2ccc(O)cc2o/c1=N\c1cccc(C(F)(F)F)c1
GI50: 2.85 µM (inactive)
//
COMPOUND: N#CCCc1nc2ccc(Br)cc2c(=O)n1CCO
GI50: > 100 µM (inactive)

====

tested on: M14; assay: NCI tumour cell line growth inhibition, 48 h
The source made the active and inactive calls. Cut-off read from the data, not from the text of the source: active = GI50 up to about 1.1 µM and inactive = higher.
Labels: active, inactive

COMPOUND: S=c1oc(CCCCCCCCc2nn(CNc3ccccc3)c(=S)o2)nn1CNc1ccccc1
MEASURED_ON: M14
CATEGORY: inactive
//
COMPOUND: OCC1OC(O[C@H]2CN3[C@H](O)[C@@H](O)[C@H](O)[C@H]3C2O)C(O)C(O)C1O (stereo partly specified)
MEASURED_ON: M14
CATEGORY: inactive
//
COMPOUND: Cc1cccc(/N=N/C(=N\NC(=O)c2cc(Cl)ccc2O)c2ccc(N(CCC#N)CCC#N)cc2C)c1
MEASURED_ON: M14
CATEGORY: inactive
//
COMPOUND: O=C(Cc1ccccc1[N+](=O)[O-])C(CO)c1ccccc1[N+](=O)[O-] (stereo unspecified)
MEASURED_ON: M14
CATEGORY: inactive
//
COMPOUND: CC1CC(c2ccc(Cl)cc2)=Nc2ccccc2S1 (stereo unspecified)
MEASURED_ON: M14
CATEGORY: inactive
//
COMPOUND: COc1ccc(C(C#N)Cc2cc(OC)c(OC)c(OC)c2)cc1 (stereo unspecified)
MEASURED_ON: M14
CATEGORY: inactive
//
COMPOUND: CCOC(=O)c1c(SC(=O)/C=C/c2ccccc2)n(-c2ccccc2)c(=S)n(-c2ccccc2)c1=O
MEASURED_ON: M14
CATEGORY: inactive
//
COMPOUND: O=C(NCc1cccnc1)C(=O)NCc1cccnc1
MEASURED_ON: M14
CATEGORY: inactive
//
COMPOUND: O=C(CN(Cc1ccccc1)Cc1ccccc1)N1CCc2c([nH]c3ccccc23)C1c1cccnc1 (stereo unspecified)
MEASURED_ON: M14
CATEGORY: inactive
//
COMPOUND: CC1(C)C(N2CCOCC2)CS1(=O)=O (stereo unspecified)
MEASURED_ON: M14
CATEGORY: inactive
//
COMPOUND: Cc1ccc2c(=O)cc(-c3cccc(F)c3)[nH]c2n1
MEASURED_ON: M14
CATEGORY: active
